Reported Plant response rating, B. signalgrass by item:
Test system: broadleaf signalgrass (Brachiaria decumbens)
Experimental protocol: Test B pre-/postemergence
Format: in vivo
Applied conditions: Rate 125 g/ha, Preemergence
Reported metric: Plant response rating, B. signalgrass

In [3]: df
Out[3]:
                         compound_structure  data_value
0  CCc1cnc(-n2cnc(C(F)(F)F)c2)nc1C(=O)c1cccc(OC(F)(F)F)c1           2
1  Cc1cnc(-n2ccc(C(F)(F)F)n2)nc1C(=O)c1cccc(C(F)(F)F)c1           9
2  O=C(c1cccc(C(F)(F)F)c1)c1ccnc(-c2ccc(F)cc2F)n1           0
3  Cc1cnc(-n2cnc(C(F)(F)F)n2)nc1Cn1ccc(C(F)(F)F)n1           9
4  Cc1cnc(-n2cnc(C(F)(F)F)c2)nc1C(=O)c1cccc(C(F)(F)F)c1           7
5  Cc1cnc(-n2ccc(C(F)(F)C(F)(F)F)n2)nc1C(=O)c1cccc(C(F)(F)F)c1           8
6  Cc1cnc(-n2cnc(C(F)(F)F)n2)nc1C(=O)c1cccc(OC(F)(F)F)c1           9
7  Cc1cnc(-c2ccc(C(F)(F)F)cc2)nc1Cn1ccc(C#N)n1           1

###

Tested on: eastern black nightshade (Solanum ptycanthum)
Experimental protocol: Test C
Assay type: in vivo
Parameters: key: 0 was no effect; 100 was complete control
Applied conditions: PREEMERGENCE, Rate 35 g/ha
Reported metric: Plant response rating, E. blacknightsh

>>> df
                         compound_structure  data_value
0  Cc1cnc(-n2cnc(C(F)(F)F)n2)nc1Cc1cccc(C(F)(F)F)c1         100
1  Cc1cnc(-n2ccc(C(F)(F)F)n2)nc1C(=O)c1cccc(OC(F)(F)F)c1           0
2  Cc1cnc(-n2ccc(C(F)(F)F)n2)nc1Cc1cccc(OC(F)(F)F)c1          90
3  Cc1cnc(-c2ccc(C(F)(F)F)cc2)nc1Cc1cccc(C(F)(F)F)c1          90

###

Test system: rape (Brassica napus)
Experimental protocol: Test B pre-/postemergence
Assay type: in vivo
Set-up: key: 0 is no effect; 10 is complete control
Applied conditions: Rate 62 g/ha, Postemergence
Classify: Criterion met when Plant response rating, Rape is strictly less than 6; Criterion not met when Plant response rating, Rape is not.

In [3]: df
Out[3]:
                                   molecule        label_class
0  CCc1cnc(-c2ccc(C(F)(F)F)cc2)nc1Cc1cccc(OC(F)(F)F)c1 [Compound 41]  Criterion not met
1  Cc1cnc(-c2cccc(C(F)(F)F)c2)nc1Cc1cccc(C#N)c1 [Compound 39]      Criterion met
2  Cc1cnc(-n2ccc(C(F)(F)F)n2)nc1Cc1cccc(OC(F)(F)F)c1 [Compound 42]  Criterion not met
3  Cc1cnc(-c2ccc(C#N)cc2)nc1Cc1cccc(C#N)c1 [Compound 36]      Criterion met
4  Cc1cnc(-c2ccc(Cl)c(Cl)c2)nc1Cc1cccc(C#N)c1 [Compound 38]      Criterion met
5  Cc1cnc(-c2ccc(F)c(Cl)c2)nc1Cc1cccc(C(F)(F)F)c1 [Compound 25]  Criterion not met

###

Reported Rape plant response rating by item:
Test system: rape (Brassica napus)
Experimental protocol: Test B pre-/postemergence
Type: in vivo
Applied conditions: Rate 125 g/ha, Preemergence
Reported metric: Rape plant response rating

>>> df
                         compound_structure  data_value
0  Cc1cnc(-c2ccc(F)c(Cl)c2)nc1Cc1cccc(C(F)(F)F)c1           7
1  CCc1cnc(-c2ccc(C(F)(F)F)cc2)nc1Cc1cccc(OC(F)(F)F)c1           3
2  COc1cnc(-c2ccc(C(F)(F)F)cc2)nc1Cc1cccc(C(F)(F)F)c1           3
3  Cc1cnc(-c2cccc(C(F)(F)F)c2)nc1Cc1cccc(C(F)(F)F)c1           2
4  Cc1cnc(-c2ccc(Cl)c(Cl)c2)nc1Cc1cccc(C(F)(F)F)c1           2
5  CCc1cnc(-n2cnc(C(F)(F)F)c2)nc1Cc1cccc(OC(F)(F)F)c1           8
6  Cc1cnc(-c2ccc(C(F)(F)F)cc2)nc1Cn1cc(I)cn1           5
7  Cc1cnc(-c2ccc(C(F)(F)F)cc2)nc1Cn1ccc(C(F)(F)C(F)(F)F)n1           1
